molecular target: PRMT5 (Homo sapiens); construct: purchased Viva (custom protein); assay: PRMT5 biochemical IC50 assay with no cofactor; conditions: PRMT5, no cofactor; read-out: No Cofactor/rel IC50
pIC50: −log10 of the molar value.
Can you tell me pIC50 for the items I'm about to list?

Previously resolved entries follow.
Inquiry: Please report pIC50 for the following compound: CC[C@H]1CC[C@H](c2ccccc2)N(C(=O)C(=O)Nc2cncc(C(N)=O)c2)C1 (single isomer, unassigned)
Reply text: 6.30 to 7.30

Inquiry: Please report pIC50 for the following compound: Cc1cc(NC(=O)C(=O)N2C[C@H](C)CC[C@H]2c2ccc(N3CCN(C)CC3)nc2)cnc1N (single isomer, unassigned)
Reply text: > 7.30

Inquiry: Please report pIC50 for the following compound: Cc1cccc([C@H]2CC[C@H](C)CN2C(=O)C(=O)Nc2cncc(C(N)=O)c2)c1 (single isomer, unassigned)
Reply text: > 7.30

Inquiry: Please report pIC50 for the following compound: Cc1cc(NC(=O)C(=O)N2C[C@H](C)CC[C@H]2c2ccc(N3CCN(C)CC3)cc2)cnc1N (racemic) [Compound 1105]
Reply text: 6.30 to 7.30

Inquiry: Please report pIC50 for the following compound: NC(=O)c1cncc(NC(=O)C(=O)N2C[C@H]3CC[C@H](C3)[C@H]2c2ccccc2)c1 (single isomer, unassigned)
Reply text: < 6.30

Could you now consider this next compound?
Inquiry: Please report pIC50 for the following compound: C[C@@H]1CC[C@@H](c2ccc3c(c2)OCC3)N(C(=O)C(=O)Nc2cncc(C(N)=O)c2)C1 (racemic)
Reply text: 6.30 to 7.30

* * *

molecular target: PRMT5 (Homo sapiens, UniProt O14744); construct: purchased Viva (custom protein); assay: PRMT5 biochemical IC50 assay with SAM as cofactor; conditions: PRMT5, SAM as cofactor; read-out: SAM IC50
Sequence (O14744 whole entry): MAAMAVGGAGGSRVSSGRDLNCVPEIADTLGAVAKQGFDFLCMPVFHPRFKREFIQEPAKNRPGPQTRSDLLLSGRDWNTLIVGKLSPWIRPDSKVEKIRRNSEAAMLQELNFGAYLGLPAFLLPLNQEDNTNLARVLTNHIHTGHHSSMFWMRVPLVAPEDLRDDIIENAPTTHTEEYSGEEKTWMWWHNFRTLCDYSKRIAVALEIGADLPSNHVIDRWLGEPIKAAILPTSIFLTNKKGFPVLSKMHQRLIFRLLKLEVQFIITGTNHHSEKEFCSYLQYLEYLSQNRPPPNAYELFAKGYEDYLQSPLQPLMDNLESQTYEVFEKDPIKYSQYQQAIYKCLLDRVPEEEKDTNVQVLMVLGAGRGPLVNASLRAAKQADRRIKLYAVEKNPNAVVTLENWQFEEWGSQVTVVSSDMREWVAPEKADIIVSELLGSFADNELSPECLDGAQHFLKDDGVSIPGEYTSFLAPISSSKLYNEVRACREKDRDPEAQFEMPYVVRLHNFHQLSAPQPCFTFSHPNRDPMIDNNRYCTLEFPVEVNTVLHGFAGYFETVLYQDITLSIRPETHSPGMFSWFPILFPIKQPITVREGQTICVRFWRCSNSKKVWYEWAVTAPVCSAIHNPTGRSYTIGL
Sequence (Q9BQA1 whole entry partner): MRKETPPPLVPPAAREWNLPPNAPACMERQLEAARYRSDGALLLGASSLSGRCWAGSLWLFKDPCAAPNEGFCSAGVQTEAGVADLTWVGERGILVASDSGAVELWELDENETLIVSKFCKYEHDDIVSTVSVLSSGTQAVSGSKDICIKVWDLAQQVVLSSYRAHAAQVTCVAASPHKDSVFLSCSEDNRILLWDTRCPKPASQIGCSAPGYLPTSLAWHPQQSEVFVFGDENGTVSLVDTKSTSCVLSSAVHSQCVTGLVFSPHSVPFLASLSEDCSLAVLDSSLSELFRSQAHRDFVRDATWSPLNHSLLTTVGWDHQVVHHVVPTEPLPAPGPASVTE
metric: IC50

The following compounds each have a reported value; give each one's IC50.
1. CCc1cc(NC(=O)C(=O)N2C[C@@H](C)CC[C@@H]2c2ccc3sc(CN(C)C)nc3c2)cnc1N [Compound 1325]
2. Cc1cc(NC(=O)C(=O)N2C[C@@H](C)CC[C@@H]2c2cccc(N(C)C)c2)cnc1N (single isomer, unassigned) [Compound 387]
3. CCc1cc(NC(=O)C(=O)N2C[C@@H](C)CC[C@@H]2c2ccc3cn(C4CCN(C)CC4)nc3c2)cnc1N (racemic) [Compound 1096]
4. CCc1cc(NC(=O)C(=O)N2C[C@@H](C)CC[C@@H]2c2ccc3sc(C(C)(C)N(C)C)nc3c2)cnc1N [Compound 1237]

Reply text:
1: 0.05 to 0.5 µM; 2: > 0.5 µM; 3: < 0.05 µM; 4: 0.05 to 0.5 µM

The following compounds each have a reported value; give each one's IC50.
1. Cc1cc(NC(=O)C(=O)N2C[C@@H](C)CC[C@@H]2c2ccc3sc(-c4cccnc4)nc3c2)cnc1N (single isomer, unassigned) [Compound 1310]
2. Cc1cc(NC(=O)C(=O)N2C[C@@H](C)CC[C@@H]2c2cc(Cl)cc(C(F)(F)F)c2)cnc1N (single isomer, unassigned) [Compound 665]

Reply text:
1. 0.05 to 0.5 µM
2. 0.05 to 0.5 µM

* * *

target: PRMT5 (Homo sapiens); construct: purchased Viva (custom protein); test: PRMT5 biochemical IC50 assay with SAM as cofactor; settings: PRMT5, SAM as cofactor; read-out: SAM IC50
pIC50: −log10 of the molar value.
metric: pIC50

The following molecules each have a reported value; give each one's pIC50.
1. Cc1cc(NC(=O)C(=O)N2C[C@@H](C)CC[C@@H]2c2cn[nH]c2)cnc1N (single isomer, unassigned)
2. CCOc1ncc(NC(=O)C(=O)N2C[C@H](C)CC[C@H]2c2ccccc2)cc1C(N)=O (single isomer, unassigned)
3. Cc1cc(NC(=O)C(=O)N2C[C@H](C)C[C@H](C)[C@H]2c2ccccc2)cnc1N (single isomer, unassigned)
4. CCc1cc(NC(=O)C(=O)N2C[C@@H](C)CC[C@@H]2c2ccccc2)cnc1N (single isomer, unassigned)

Reply text:
6.30 to 7.30
< 6.30
< 6.30
< 6.30

The following molecules each have a reported value; give each one's pIC50.
1. C[C@H]1CC[C@H]([C@H]2CC[C@@H](O)CC2)N(C(=O)C(=O)Nc2cncc(C(N)=O)c2)C1 (single isomer, unassigned)
2. Cc1cc(NC(=O)C(=O)N2C[C@H](C)CC[C@H]2c2cccc(C3CCN(C)CC3)c2)cnc1N (single isomer, unassigned) [Compound 1291]

Reply text:
1: < 6.30; 2: < 6.30
